Tested on: RPMI-8226
Assay: NCI tumour cell line growth inhibition, 48 h
Activity calls are given as the source filed them. Cut-off read from the data, not from the text of the source: active = GI50 up to about 1.1 µM and inactive = higher.
Possible outcomes: yes (1) (active), no (0) (inactive)

| compound | assigned-class |
| --- | --- |
| COc1cc(C2c3cc4c(c(O)c3C(=O)C3CCC(=O)N32)OCO4)cc(OC)c1OC (stereo not given) | no (0) |
| c1ccc2c(c1)CCN(C1=NCCO1)C2 | no (0) |
| CN1C(=O)C(O)CC1c1ccccc1C(F)(F)F (stereo not given) | no (0) |
| Nc1c(S(=O)(=O)O)cc(Nc2cccc(S(=O)(=O)/C=C/S(=O)(=O)O)c2)c2c1C(=O)c1ccccc1C2=O | no (0) |
| CCCN(CCC)c1c([N+](=O)[O-])cc(S(N)(=O)=O)cc1[N+](=O)[O-] | no (0) |
| CCOC(=O)NC/C=C/CO | no (0) |
| Cc1cc(C)nc(NS(=O)(=O)c2ccc(Nc3c4ccccc4nc4c(C(=O)Nc5ccc(S(N)(=O)=O)cc5)cccc34)cc2)n1 | no (0) |
| NC(Cn1ccc(=O)c(O)c1)C(=O)O (stereo not given) | no (0) |
| CN1CC[C@]23c4c5ccc(O)c4OC2c2[nH]ncc2C[C@H]3[C@H]1C5 (stereo not given in full) | no (0) |
| Nc1ccc2nc3c(nc2c1)C(=O)c1ccccc1-3 | no (0) |
| CC1(C)C2CC(c3ccncc3)ON2C(C)(C)N1O (stereo not given) | no (0) |
| CC(C)(C)OC(=O)[C@H]1CCC(=S)N1Cc1ccccc1 | no (0) |
| O=c1[nH]c2c(c(=O)[nH]1)SC(c1ccccc1)C2 (stereo not given) | no (0) |
| OCc1ccn2c1[C@@H](O)CC2 | no (0) |
| CCN(CC)C(=S)SC(C(=O)Nc1nnc(-c2ccc(Cl)cc2)o1)c1ccccc1 (stereo not given) | no (0) |
| COc1cc(CNc2nc3cc(N)cc(N)c3nc2-c2ccccc2)cc(OC)c1 | no (0) |
| CC(=O)O[C@H]1C[C@](C)(O)[C@@]23CC([C@@H](OC(=O)C(C)(C)O)[C@@H](OC(C)=O)C2(COC(=O)c2ccccc2)[C@H]1OC(C)=O)C(C)(C)O3 (stereo not given in full) | no (0) |
| CCC1(O)C(=O)OCc2c1cc1n(c2=O)Cc2cc3ccccc3nc2-1 (stereo not given) | yes (1) |
| Cn1c2c3ccccc3nc-2c(O)c2ccccc21 [HYDROXYCRYPTOLEPINE] | no (0) |
| CCOc1ccccc1/N=N/c1c(-c2ccccc2)nn(C(=O)CC(=O)Nc2cccc(Cl)c2)c1-c1ccccc1 | no (0) |
| c1ccc(C[N+]23C(CC[C@H]2c2ccccc2)CC[C@H]3c2ccccc2)cc1 (stereo not given in full) | no (0) |
| CCn1cc2c(=O)n3ncn(-c4ccc(Br)cc4)c3nc2n1 | no (0) |
| CCN(CC)CCOc1ccc(CCc2cc(OC)c(OC)c(OC)c2)cc1 | no (0) |
| C[S+]([O-])c1cc(=O)c2ccccc2s1 (stereo not given) | no (0) |
| COC(=O)c1cc(C)ccc1CC(Cc1cccc(C)c1)C(=O)OC (stereo not given) | no (0) |
| CCOC(=O)C1=C(C)N(c2ccc(C)cc2)C2(O)C=CC(O)=C3C(=O)c4ccccc4C(=O)C312 (stereo not given) | no (0) |
| O=C1Nc2ccccc2Nc2ccncc21 | no (0) |
| CCOC(=O)CCC(NC(=O)c1ccc(OCc2ccc3nc(-c4ccccc4)c(Cl)nc3c2)cc1)C(=O)OCC (stereo not given) | no (0) |
| C=C(C)c1nc(C#N)c(N)o1 | no (0) |
| C[C@]12CCC(=O)C(O)=C1CC[C@@H]1C2CC[C@]2(C)NC(=O)CCC12 (stereo not given in full) | no (0) |
| c1csc(-c2ccc(-c3cccs3)c3nsnc23)c1 | no (0) |
| CCC1(O)C=CC(=O)C=C1 | no (0) |
| CC(=O)OCC1=C(COC(C)=O)C(=O)c2c(O)ccc(O)c2C1=O | no (0) |
| C=CCN1CN(c2ccccc2)C2(CCN(CCCC3(c4ccc(F)cc4)OCCO3)CC2)C1=O | no (0) |
| CCNC(=S)NNC(=O)c1csc(NC(=S)NC2CCCCC2)n1 | no (0) |
| Clc1ccc(C2Nc3ccccc3C3=NCCN32)cc1 (stereo not given) | no (0) |
| Cc1ccc(N2C(=O)C3C=CC(n4[nH]c(=O)n(Cc5ccccc5)c4=O)CC3C2=O)cc1 (stereo not given) | no (0) |
| Clc1cccc(/N=C/C=C/Nc2cccc(Cl)c2)c1 | no (0) |
| CCCOc1ccc(/C=C\c2cc(OC)c(OC)c(OC)c2)cc1 | no (0) |
| C1#Cc2ccccc2OCCOc2ccccc2C#Cc2ccccc2OCCOc2ccccc21 | no (0) |
| COC1C=C(NCC2(CO)CCC2)N=C(N)N1 (stereo not given) | no (0) |
| Cc1cc(S(=O)(=O)Nc2nc(N)nc(N(C)C)n2)c(SC(C(=O)O)c2ccccc2)cc1Cl (stereo not given) | no (0) |
| Cc1ccc(C(=O)N(Cc2ccccc2)Cc2ccccc2)cc1/N=N/N(C)C | no (0) |
| Cc1cc2occ(-c3ccc(Cl)cc3)c2c(=O)o1 | no (0) |
| NNC(=O)c1cccc2c1Oc1ccccc1S2 | no (0) |

These data points were gathered from ChEMBL document CHEMBL1201862.
